Target: LYPLA1 (Mus musculus)
Construct: a complex proteome endogenously expressing LYPLA1/2 was incubated with test compound; from tissue; host or cells: mouse brain, membrane fraction
Sequence (P97823 whole entry): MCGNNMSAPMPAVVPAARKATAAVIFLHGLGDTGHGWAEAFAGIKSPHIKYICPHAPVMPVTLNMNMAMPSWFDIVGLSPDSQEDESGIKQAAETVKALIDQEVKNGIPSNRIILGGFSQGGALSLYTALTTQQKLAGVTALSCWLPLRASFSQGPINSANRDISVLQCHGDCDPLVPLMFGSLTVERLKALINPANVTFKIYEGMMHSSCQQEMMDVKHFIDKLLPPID
Assay: Gel-based competitive ABPP in vitro, mouse brain membrane proteome
Format: biochemical
Details: 100 μM compound, 30 min, one replicate; read-out: LYPLA1 % INH 100 μM
measurement.type: inhibition at 100 µM (%)

Answered cases to consult:
>  <compound>
CC(C)(C)CC(=O)N1CCN2C(=O)N(OC(=O)N3CCC(CCc4ccc(Cl)cc4)CC3)C(=O)C2C1 (stereo not drawn) [Compound 4]

>  <assay.result>
100

$$$$
>  <compound>
COC(=O)C1CCN(C(=O)ON2C(=O)C3CN(C(=O)OC(C)(C)C)CCN3C2=O)CC1 (stereo not drawn) [Compound 15]

>  <assay.result>
25

$$$$
>  <compound>
O=C(ON1C(=O)C2CN(C(=O)c3ccc(F)c([N+](=O)[O-])c3)CCN2C1=O)N1CCC(CCc2ccc(Cl)cc2)CC1 (stereo not drawn) [Compound 9]

>  <assay.result>
100

$$$$

[P] COc1ccc(C(=O)N2CCN3C(=O)N(OC(=O)N4CCC(CCc5ccc(Cl)cc5)CC4)C(=O)C3C2)cc1 (stereo not drawn) [Compound 11]
[Q] CC(C)(C)OC(=O)N1CCN2C(=O)N(OC(=O)N3CCOCC3Cc3ccccc3)C(=O)C2C1 (stereo not drawn) [Compound 16]
[R] CC(C)(C)OC(=O)N1CCN2C(=O)N(OC(=O)N3CCCCC3)C(=O)C2C1 (stereo not drawn) [Compound 14]
Put the items in order so that reported inhibition at 100 µM rises from first to last. List the labels in the requested order.
Q, R, P

* * *

Molecular target: LYPLA1 (Mus musculus)
Construct: a complex proteome endogenously expressing LYPLA1/2 was incubated with test compound; from tissue; host or cells: mouse brain, membrane fraction
Assay: Gel-based competitive ABPP in vitro, mouse brain membrane proteome
Assay type: biochemical
Settings: 1 μM, mouse brain (mem) proteome
measurement.type: LYPLA1 in vitro enzyme activity, % @ 1 μM (% @)

>  <compound>
C#Cc1ccc(CCC2CCN(C(=O)ON3C(=O)C4CN(C(=O)N5CCOCC5)CCN4C3=O)CC2)cc1 (centres unmarked)

>  <assay.result>
75

$$$$
>  <compound>
O=C(ON1C(=O)[C@H]2CN(C(=O)N3CCOCC3)CCN2C1=O)N1CCC(CCc2ccc(Cl)cc2)CC1

>  <assay.result>
100

$$$$
>  <compound>
C#Cc1ccc(CCC2CCN(C(=O)ON3C(=O)[C@H]4CN(C(=O)N5CCOCC5)CCN4C3=O)CC2)cc1

>  <assay.result>
75

$$$$
>  <compound>
C#Cc1ccc(CCC2CCN(C(=O)ON3C(=O)[C@@H]4CN(C(=O)N5CCOCC5)CCN4C3=O)CC2)cc1

>  <assay.result>
75

$$$$
>  <compound>
O=C(ON1C(=O)[C@@H]2CN(C(=O)N3CCOCC3)CCN2C1=O)N1CCC(CCc2ccc(Cl)cc2)CC1

>  <assay.result>
100

$$$$

* * *

Biological target: LYPLA2 (Mus musculus, UniProt Q9WTL7)
Construct: a complex proteome endogenously expressing LYPLA1/2 was incubated with test compound; from tissue; host or cells: mouse brain, membrane fraction
Sequence (Q9WTL7 whole entry): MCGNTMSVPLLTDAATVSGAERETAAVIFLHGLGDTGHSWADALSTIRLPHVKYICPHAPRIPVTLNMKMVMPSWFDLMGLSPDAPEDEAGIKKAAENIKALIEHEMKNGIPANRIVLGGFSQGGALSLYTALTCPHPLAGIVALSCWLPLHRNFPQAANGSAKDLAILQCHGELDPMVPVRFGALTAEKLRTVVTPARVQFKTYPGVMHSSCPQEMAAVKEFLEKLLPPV
Test: Gel-based competitive ABPP in vitro, mouse brain membrane proteome
Type: biochemical
Settings: 100 μM compound, 30 min, one replicate; read-out: LYPLA2 % INH 100 μM
measurement.type: inhibition at 100 µM (%)

The cases that follow already have their inhibition at 100 µM on record.
>  <molecule>
O=C(ON1C(=O)C2CN(CCc3ccccc3)CCN2C1=O)N1CCC(CCc2ccc(Cl)cc2)CC1 (stereo not drawn)

>  <value.units>
%

>  <assay.result>
100

$$$$
>  <molecule>
O=C(ON1C(=O)C2CN(C(=O)c3ccc(F)c([N+](=O)[O-])c3)CCN2C1=O)N1CCC(CCc2ccc(Cl)cc2)CC1 (stereo not drawn)

>  <value.units>
%

>  <assay.result>
100

$$$$
>  <molecule>
Cc1ccc(C(=O)N2CCN3C(=O)N(OC(=O)N4CCC(CCc5ccc(Cl)cc5)CC4)C(=O)C3C2)cc1 (stereo not drawn)

>  <value.units>
%

>  <assay.result>
100

$$$$
>  <molecule>
CC(C)(C)OC(=O)N1CCN2C(=O)N(OC(=O)N3CCC(CCc4ccc(Cl)cc4)CC3)C(=O)C2C1 (stereo not drawn)

>  <value.units>
%

>  <assay.result>
100

$$$$
>  <molecule>
CCN(C(=O)C1CCN(C(=O)ON2C(=O)C3CN(C(=O)OC(C)(C)C)CCN3C2=O)CC1)c1ccccc1 (stereo not drawn)

>  <value.units>
%

>  <assay.result>
100

$$$$
>  <molecule>
CC(C)(C)CC(=O)N1CCN2C(=O)N(OC(=O)N3CCC(CCc4ccc(Cl)cc4)CC3)C(=O)C2C1 (stereo not drawn)

>  <value.units>
%

>  <assay.result>
100

$$$$
>  <molecule>
CC(C)(C)OC(=O)N1CCN2C(=O)N(OC(=O)N3CCN(C(c4ccc(Cl)cc4)c4ccc(Cl)cc4)CC3)C(=O)C2C1 (stereo not drawn)

>  <value.units>
%

>  <assay.result>
60

$$$$
>  <molecule>
CC(C)(C)OC(=O)N1CCN2C(=O)N(OC(=O)N3CCCCC3)C(=O)C2C1 (stereo not drawn)

>  <value.units>
%

>  <assay.result>
25

$$$$
>  <molecule>
O=C(ON1C(=O)C2CN(C(=O)N3CCCC3)CCN2C1=O)N1CCC(CCc2ccc(Cl)cc2)CC1 (stereo not drawn)

>  <value.units>
%

>  <assay.result>
100

$$$$
>  <molecule>
CC(C)(C)OC(=O)N1CCN2C(=O)N(OC(=O)N3CCN(CCc4ccccc4)CC3)C(=O)C2C1 (stereo not drawn)

>  <value.units>
%

>  <assay.result>
75

$$$$

[P] CC(C)(C)OC(=O)N1CCN2C(=O)N(OC(=O)N3CCC(C(=O)Nc4ccccc4)CC3)C(=O)C2C1 (stereo not drawn)
[Q] O=C(ON1C(=O)C2CN(C(=O)N3CCCCC3)CCN2C1=O)N1CCC(CCc2ccc(Cl)cc2)CC1 (stereo not drawn)
Please choose the item with the lower inhibition at 100 µM value from this pair: P and Q Write down the label attached to your selection.
P

[I] CC(C)(C)OC(=O)N1CCN2C(=O)N(OC(=O)N3CCOCC3Cc3ccccc3)C(=O)C2C1 (stereo not drawn)
[II] O=C(ON1C(=O)C2CN(C(=O)c3ccc(Br)cc3)CCN2C1=O)N1CCC(CCc2ccc(Cl)cc2)CC1 (stereo not drawn)
Could you determine which record has the numerically smaller inhibition at 100 µM? Candidates: I and II Return value: the label identifying the chosen record.
I

* * *

Biological target: FAAH (Mus musculus)
Construct: from tissue; host or cells: mouse brain, membrane fraction
Test: Gel-based competitive ABPP in vitro, mouse brain membrane proteome
Format: biochemical
Conditions: 10 μM, mouse brain (mem) proteome
measurement.type: FAAH in vitro enzyme activity, % @ 10 μM (% @)

>  <input.smiles>
C#CCOc1ccc(N2CCN(C(=O)ON3C(=O)[C@@H]4CN(Cc5ccc(Oc6ccccc6)cc5)CCN4C3=O)CC2)cc1

>  <value.units>
% @

>  <FAAH in vitro enzyme activity, % @ 10 μM>
0

$$$$
>  <input.smiles>
O=C(ON1C(=O)[C@H]2CN(C(=O)N3CCOCC3)CCN2C1=O)N1CCC(CCc2ccc(Cl)cc2)CC1

>  <value.units>
% @

>  <FAAH in vitro enzyme activity, % @ 10 μM>
0

$$$$
>  <input.smiles>
O=C(ON1C(=O)[C@@H]2CN(C(=O)N3CCOCC3)CCN2C1=O)N1CCC(CCc2ccc(Cl)cc2)CC1

>  <value.units>
% @

>  <FAAH in vitro enzyme activity, % @ 10 μM>
0

$$$$

[a] COc1ccc(N2CCN(C(=O)ON3C(=O)[C@@H]4CN(CC5CCN(Cc6ccccc6)CC5)CCN4C3=O)CC2)cc1
[b] C#Cc1ccc(CCC2CCN(C(=O)ON3C(=O)[C@H]4CN(C(=O)N5CCOCC5)CCN4C3=O)CC2)cc1
Compare a and b and name the one whose reported FAAH in vitro enzyme activity, % @ 10 μM is smaller. Respond using the label that marks the chosen record.
a

* * *

Biological target: FAAH (Mus musculus, UniProt O08914)
Construct: from tissue; host or cells: mouse brain, membrane fraction
Sequence (O08914 whole entry): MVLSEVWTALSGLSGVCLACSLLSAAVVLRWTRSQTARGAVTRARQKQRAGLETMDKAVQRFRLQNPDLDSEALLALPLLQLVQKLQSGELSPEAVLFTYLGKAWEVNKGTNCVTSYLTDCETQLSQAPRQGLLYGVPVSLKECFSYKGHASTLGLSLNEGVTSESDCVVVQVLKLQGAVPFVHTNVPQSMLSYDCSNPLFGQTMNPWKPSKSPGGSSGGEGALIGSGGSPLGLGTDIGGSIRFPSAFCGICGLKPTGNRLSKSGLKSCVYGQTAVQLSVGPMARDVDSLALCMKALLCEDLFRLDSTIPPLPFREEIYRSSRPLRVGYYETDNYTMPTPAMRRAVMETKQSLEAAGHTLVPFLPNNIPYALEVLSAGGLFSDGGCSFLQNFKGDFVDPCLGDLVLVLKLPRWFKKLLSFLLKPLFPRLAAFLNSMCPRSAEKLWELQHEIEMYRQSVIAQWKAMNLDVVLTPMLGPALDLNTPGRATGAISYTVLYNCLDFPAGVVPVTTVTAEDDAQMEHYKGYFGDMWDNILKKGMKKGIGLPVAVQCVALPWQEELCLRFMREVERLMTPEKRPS
Assay: Gel-based competitive ABPP in vitro, mouse brain membrane proteome
Type: biochemical
Settings: 10 μM, mouse brain (mem) proteome
measurement.type: FAAH in vitro enzyme activity, % @ 10 μM (% @)

>  <compound>
O=C(ON1C(=O)[C@@H]2CN(Cc3ccc(Br)cc3)CCN2C1=O)N1CCC(CCc2ccc(Cl)cc2)CC1

>  <measurement.type>
FAAH in vitro enzyme activity, % @ 10 μM

>  <value.units>
% @

>  <assay.result>
50

$$$$
>  <compound>
C#Cc1ccc(CCC2CCN(C(=O)ON3C(=O)C4CN(C(=O)N5CCOCC5)CCN4C3=O)CC2)cc1 (stereo not shown)

>  <measurement.type>
FAAH in vitro enzyme activity, % @ 10 μM

>  <value.units>
% @

>  <assay.result>
50

$$$$

[1] C#Cc1ccc(CCC2CCN(C(=O)ON3C(=O)[C@@H]4CN(C(=O)N5CCOCC5)CCN4C3=O)CC2)cc1
[2] C#CCOc1ccc(N2CCN(C(=O)ON3C(=O)[C@@H]4CN(CC5CCN(Cc6ccccc6)CC5)CCN4C3=O)CC2)cc1
Between 1 and 2 , whose measured FAAH in vitro enzyme activity, % @ 10 μM reads higher? Refer to your chosen entry by its label in the reply.
1
(1: 75 % @, 2: 0 % @)
